Overview of reported Selectivity ratio across a group of compounds:
- System: Human immunodeficiency virus 1
- method: Selectivity for wild type HIV1 virus over HIV1 K103N mutant
- Type: functional

molecule smiles	target of assay	Selectivity ratio
Cc1ccnc2c1NC(=O)c1cccnc1N2C1CC1	Human immunodeficiency virus 1	101
COc1ccc([C@H]2CC(=O)N(c3cccc(NS(=O)(=O)c4cccc(C)c4)c3)C2)cc1OC1CCCC1	Human immunodeficiency virus 1	3.4
COc1ccc([C@H]2CC(=O)N(c3cccc(NS(=O)(=O)c4cccc(F)c4)c3)C2)cc1OC1CCCC1	Human immunodeficiency virus 1	6
COc1ccc([C@H]2CC(=O)N(c3cccc(NS(=O)(=O)c4cccc(Cl)c4)c3)C2)cc1OC1CCCC1	Human immunodeficiency virus 1	27
COc1ccc([C@H]2CC(=O)N(c3cccc(NS(=O)(=O)c4cc(Br)c(Cl)s4)c3)C2)cc1OC1CCCC1	Human immunodeficiency virus 1	12
COc1ccc([C@H]2CC(=O)N(c3cccc(NS(=O)(=O)c4c(F)cccc4F)c3)C2)cc1OC1CCCC1	Human immunodeficiency virus 1	9.4
COc1cccc(S(=O)(=O)Nc2cccc(N3C[C@@H](c4ccc(OC)c(OC5CCCC5)c4)CC3=O)c2)c1	Human immunodeficiency virus 1	26
COc1ccc([C@H]2CC(=O)N(c3cccc(NS(=O)(=O)c4ccccc4Br)c3)C2)cc1OC1CCCC1	Human immunodeficiency virus 1	6.9
COc1ccc([C@H]2CC(=O)N(c3cccc(NS(=O)(=O)c4cc(C)ccc4OC)c3)C2)cc1OC1CCCC1	Human immunodeficiency virus 1	5.2
COc1ccc([C@H]2CC(=O)N(c3cccc(NS(=O)(=O)c4cccc(Br)c4)c3)C2)cc1OC1CCCC1	Human immunodeficiency virus 1	13

====

- System: Human immunodeficiency virus 1
- method: Antiviral activity against wild type HIV1 virus
- Assay type: functional, organism-based
pEC50: −log10 of the molar value.
Let's look at some compounds and their measured pEC50.
experimental endpoint: pEC50

molecule smiles	experimental endpoint	test value
COc1ccc([C@H]2CC(=O)N(c3cccc(NCc4ccoc4)c3)C2)cc1OC1CCCC1	pEC50	5.71
COc1ccc([C@H]2CC(=O)N(c3cccc(NS(=O)(=O)c4cccc(OC(F)(F)F)c4)c3)C2)cc1OC1CCCC1	pEC50	6.10
COc1ccc([C@H]2CC(=O)N(c3cccc(NS(=O)(=O)c4ccc(F)cc4)c3)C2)cc1OC1CCCC1	pEC50	6.99
COc1ccc(S(=O)(=O)Nc2cccc(N3C[C@@H](c4ccc(OC)c(OC5CCCC5)c4)CC3=O)c2)cc1	pEC50	6.59

====

- target of assay: Human immunodeficiency virus type 1 reverse transcriptase (Human immunodeficiency virus 1)

molecule smiles	target of assay	IC50 [nM]
COc1ccc([C@H]2CC(=O)N(c3cccc(N)c3)C2)cc1OC1CCCC1	Human immunodeficiency virus type 1 reverse transcriptase (Human immunodeficiency virus 1)	2000

====

- Test system: Human immunodeficiency virus 1
- method: Selectivity for wild type HIV1 virus over HIV1 K103N mutant
- Assay type: functional
Each entry below lists one item and its recorded Selectivity ratio value.

molecule smiles	Selectivity ratio
COc1ccc([C@H]2CC(=O)N(c3cccc(NS(=O)(=O)c4ccccc4Cl)c3)C2)cc1OC1CCCC1	4
COc1ccc([C@H]2CC(=O)N(c3cccc(NS(=O)(=O)c4cccc(Cl)c4C)c3)C2)cc1OC1CCCC1	8.1
COc1ccc([C@H]2CC(=O)N(c3cccc(NS(=O)(=O)c4ccccc4C)c3)C2)cc1OC1CCCC1	4.9
COc1ccc([C@H]2CC(=O)N(c3cccc(NS(=O)(=O)c4ccccc4F)c3)C2)cc1OC1CCCC1	4.2
